- ASSAYED_TARGET: Peptidyl-prolyl cis-trans isomerase FKBP1A (Homo sapiens)
- ASSAY_PROCEDURE: small-molecule binding to FKBP12 – biophysical, NMR detection (AID 608)
- RECORDED_CONDITIONS: purified FKBP12
Calls of active or inactive are those of the source. How the calls were made is not given here.
Labels: active, inactive

>>> assigned_label("CC(=O)OCC(OC(C)=O)C(OC(C)=O)C(OC(C)=O)C(OC(C)=O)C(COC(C)=O)OC(C)=O (stereo not drawn)")
"inactive"
>>> assigned_label("OCC1CCCC1O (stereo not drawn)")
"inactive"
>>> assigned_label("Cc1ccc(CN2CCN(C(=O)C3CCC3)CC2)cc1")
"inactive"
>>> assigned_label("Cc1occc1C(=O)Nc1sccc1C(N)=O")
"inactive"
>>> assigned_label("CC1(C)C(=O)N(O)C(C)(C)C(=O)N1O")
"inactive"
>>> assigned_label("O=C(c1nc2ncccn2n1)N1CCc2ccccc2C1")
"inactive"
>>> assigned_label("CN1CCn2c1nc(N1CCCCC1)nc2=O")
"inactive"
>>> assigned_label("O=C1CSC(=S)N1Cc1cccnc1")
"inactive"
>>> assigned_label("COc1cccc(NC(=O)c2cccs2)c1")
"active"
>>> assigned_label("NC(=O)CSc1nnc2ccc(-c3ccccn3)nn12")
"inactive"
>>> assigned_label("Cc1cc(=O)oc2c1c(C)nn2CN1CCN(C)CC1")
"inactive"
>>> assigned_label("NC(=O)C1CCN(c2nccc(C(F)(F)F)n2)CC1")
"inactive"
>>> assigned_label("NC1=NC(=O)/C(=C/c2cccc([N+](=O)[O-])c2)S1")
"inactive"

###

- ASSAYED_TARGET: Peptidyl-prolyl cis-trans isomerase FKBP1A (Homo sapiens) (UniProt P62942)
- Sequence (P62942 whole entry, looked up): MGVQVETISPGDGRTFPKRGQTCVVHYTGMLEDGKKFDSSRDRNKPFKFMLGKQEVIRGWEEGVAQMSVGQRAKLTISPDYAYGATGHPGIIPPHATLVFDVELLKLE
- ASSAY_PROCEDURE: small-molecule binding to FKBP12 – biophysical, NMR detection (AID 608)
- RECORDED_CONDITIONS: purified FKBP12
The source made the active and inactive calls. No rule for the calls is given here.
Labels: true (1) for active, false (0) for inactive

>>> assigned_label("COc1ccc(S(=O)(=O)N2CCC(C(N)=O)CC2)cc1")
"false (0)"
>>> assigned_label("CC1(C)C(=O)C=C[C@@]2(C)C1C[C@@H](O)[C@]1(C)C2CC[C@@]2(C)[C@H](c3ccoc3)OC(=O)[C@H]3O[C@]321 (stereo partly specified)")
"false (0)"
>>> assigned_label("O=C1CC(NCc2ccco2)C(=O)NN1 (stereo unspecified)")
"false (0)"
>>> assigned_label("Cc1cccc(-n2c(N)cc(=O)[nH]c2=S)c1")
"false (0)"
>>> assigned_label("O=C(NS(=O)(=O)c1ccccc1)c1ccccc1F")
"false (0)"
>>> assigned_label("C=C1C2CC[C@@]3(C)[C@H](c4ccoc4)OC(=O)C[C@]13O[C@H]1CC(=O)C(C)(C)C(CC(=O)OC)C21C (stereo partly specified)")
"false (0)"
>>> assigned_label("Oc1ccc2nonc2c1")
"false (0)"
>>> assigned_label("Cc1occc1C(=O)NC1CCN(C)CC1")
"false (0)"
>>> assigned_label("Cc1cc(C)n2nc(SCC(=O)c3ccccc3)nc2n1")
"false (0)"
>>> assigned_label("O=C(c1cc2ccccc2o1)N1CCCCCC1")
"true (1)"
>>> assigned_label("Cn1nnc2cc(C(=O)Nc3cccnc3)ccc21")
"false (0)"
>>> assigned_label("O=S(=O)(Nc1cc(Cl)cc(Cl)c1)N1CCOCC1")
"false (0)"
>>> assigned_label("O=C1C2CCCCC2C(=O)N1c1nccs1 (stereo unspecified)")
"false (0)"
>>> assigned_label("CC1(C)C(=O)[C@@H]2O[C@@H]2[C@@]2(C)C1C[C@@H](O)[C@]1(C)C2CC[C@@]2(C)[C@H](c3ccoc3)OC(=O)C3OC321 (stereo partly specified)")
"false (0)"
>>> assigned_label("O=C(O)c1ccc2c(c1)OCO2")
"false (0)"
>>> assigned_label("O=C(c1ccncc1)N1CCN(C(=O)c2ccco2)CC1")
"false (0)"
>>> assigned_label("O=C(O)C1C(=O)NCC1c1ccccc1 (stereo unspecified)")
"false (0)"
>>> assigned_label("Oc1ccccc1N=Cc1cccnc1")
"false (0)"
>>> assigned_label("O=C(NCc1ccccc1Br)c1ccco1")
"false (0)"
>>> assigned_label("CCCn1cnn2c(=O)cc(C)nc12")
"false (0)"
>>> assigned_label("Cn1nnc2c(Cl)ncnc21")
"false (0)"
>>> assigned_label("O=c1c(O)c(-c2ccc(O)cc2O)oc2cc(O)cc(O)c12")
"false (0)"
>>> assigned_label("O=C(NC1CC1)c1ccccc1[N+](=O)[O-]")
"false (0)"
>>> assigned_label("Cc1noc(C)c1C(=O)NC1=NCCS1")
"false (0)"
>>> assigned_label("O=S1(=O)CCC(NC(=S)N2CCOCC2)C1 (stereo unspecified)")
"true (1)"
>>> assigned_label("O=C(CC1CCCCC1)N1CCN(c2ccccn2)CC1")
"false (0)"

###

- ASSAYED_TARGET: Peptidyl-prolyl cis-trans isomerase FKBP1A (Homo sapiens) (UniProt P62942)
- ASSAY_PROCEDURE: small-molecule binding to FKBP12 – biophysical, NMR detection (AID 608)
- RECORDED_CONDITIONS: purified FKBP12
The source made the active and inactive calls. How the calls were made is not given here.
Labels: TRUE for active, FALSE for inactive

>>> assigned_label("O=C(Nc1cnccn1)c1cccc(C(F)(F)F)c1")
"FALSE"
>>> assigned_label("O=C(O)CCn1cncn1")
"FALSE"
>>> assigned_label("COC(=O)C[C@H]1C(C)(C)C(=O)[C@@H]2CC3=C4CC(=O)O[C@@H](c5ccoc5)[C@]4(C)CCC3C1(C)C2=O (stereo partly drawn)")
"FALSE"
>>> assigned_label("CC(=O)O[C@H]1C[C@@H](OC(C)=O)C(C)(C)C2C[C@@H](OC(C)=O)[C@@]3(C)C4=CC(=O)O[C@@H](c5ccoc5)[C@]4(C)CCC3[C@]21C (stereo partly drawn)")
"FALSE"
>>> assigned_label("Cc1nnc(SCc2ccon2)n1-c1ccccc1")
"TRUE"
>>> assigned_label("NCC1CN(Cc2ccccc2)CCO1 (stereo not drawn)")
"FALSE"
>>> assigned_label("O=[N+]([O-])c1c[n+]([O-])n(-c2ccccc2)n1")
"FALSE"
>>> assigned_label("COc1ccccc1-c1noc(-c2ccco2)n1")
"FALSE"
>>> assigned_label("Cc1nnc(NC(=O)C(C)Sc2nncn2C)s1 (stereo not drawn)")
"FALSE"
>>> assigned_label("CC(=O)Nc1ccc(N2CCOCC2)cc1")
"FALSE"
>>> assigned_label("Cc1noc(C)c1C(=O)Nc1ccc2c(c1)CCC2")
"FALSE"
>>> assigned_label("CC(C)=CC(=O)Nc1ccccc1C(N)=O")
"FALSE"
>>> assigned_label("O=C1CSC2=NCCCN12")
"FALSE"

###

- ASSAYED_TARGET: Peptidyl-prolyl cis-trans isomerase FKBP1A (Homo sapiens)
- ASSAY_PROCEDURE: small-molecule binding to FKBP12 – biophysical, NMR detection (AID 608)
- RECORDED_CONDITIONS: purified FKBP12
Calls of active or inactive are those of the source. No rule for the calls is given here.
MEASURE: Kd

>>> reported("COc1cccc2onc(N)c12")
"> 4 mM (inactive)"
>>> reported("Cc1ccc(S(C)(=O)=O)s1")
"> 4 mM (inactive)"
>>> reported("Cc1ccc(S(=O)(=O)CC(N)=O)cc1")
"> 4 mM (inactive)"
>>> reported("Cc1onc(-c2ccccc2)c1CN")
"> 4 mM (inactive)"
>>> reported("Oc1ccc(-n2cncn2)cc1")
"> 4 mM (inactive)"
>>> reported("O=C(NCc1ccccn1)c1ccccc1Cl")
"> 4 mM (inactive)"
>>> reported("Cc1nc2ccc(F)cc2cc1C(=O)NCc1ccco1")
"> 4 mM (inactive)"
>>> reported("Cc1cc(-c2ccc(Cl)cc2)n2nc(N)nc2n1")
"> 4 mM (inactive)"
>>> reported("Fc1ccc(NC2=NCCS2)cc1Cl")
"> 4 mM (inactive)"
>>> reported("CO[C@H]1[C@@H](O)[C@@H](C)O[C@H](O[C@H]2CCC3(C)C4CCC5(C)[C@@H](C6=CC(=O)OC6)CC[C@]5(O)[C@@H]4CC[C@]3(O)C2)[C@@H]1O (some centres not stated)")
"> 4 mM (inactive)"
>>> reported("CC1(C)Cn2c(nnc2-c2ccccc2)S1")
"> 4 mM (inactive)"

###

- ASSAYED_TARGET: Peptidyl-prolyl cis-trans isomerase FKBP1A (Homo sapiens)
- ASSAY_PROCEDURE: small-molecule binding to FKBP12 – biophysical, NMR detection (AID 608)
- RECORDED_CONDITIONS: purified FKBP12
Active and inactive are the calls of the source. How the calls were made is not given here.
Labels: Y for active, N for inactive

>>> assigned_label("Cc1onc(-c2c(Cl)cccc2Cl)c1C(N)=O")
"N"
>>> assigned_label("N=C1/C(=C\\c2ccccc2)C(=O)N=C2SC=NN12")
"N"
>>> assigned_label("COC1=CC(=O)C=C(OC)C1=O")
"N"
>>> assigned_label("COc1ccc(-c2cc3nc4n(c(=O)c3s2)CCC4)cc1")
"N"
>>> assigned_label("COC1C(O)C(O[C@H]2CC[C@]3(C=O)C4C(CC[C@]3(O)C2)[C@@]2(O)CC[C@H](C3=CC(=O)OC3)[C@@]2(C)C[C@H]4OC(C)=O)OC(C)C1OC(C)=O (some centres undefined)")
"N"
>>> assigned_label("CC(=O)O[C@H]1C[C@@H](OC(C)=O)C(C)(C)C2C[C@@H](OC(C)=O)[C@]3(C)C(CC[C@@]4(C)[C@H](c5ccoc5)C(=O)[C@H]5O[C@]543)[C@]21C (some centres undefined)")
"N"
>>> assigned_label("Cc1ccc2cc(N)ccc2n1")
"N"
>>> assigned_label("Nc1ccc(S(=O)(=O)Nc2nccs2)cc1")
"N"
>>> assigned_label("COc1ccc(Cc2nccc3cc(OC)c(OC)cc23)cc1OC")
"N"
>>> assigned_label("CC(C)NC(=O)Cc1c(O)c2ccccc2[nH]c1=O")
"N"
>>> assigned_label("CN1CCN(C(=O)c2ccccc2C(=O)O)CC1")
"N"
>>> assigned_label("ON=c1ccc2nc3ccccc3nc2cc1")
"N"
>>> assigned_label("CC[C@]12CCCN3CCc4c(n(c5ccccc45)[C@](O)(C(=O)OC)C1)[C@@H]32")
"N"
>>> assigned_label("O=C(NCc1ccccc1F)c1cccs1")
"N"
>>> assigned_label("OC[C@H]1O[C@@H](Oc2ccc(O)cc2)[C@H](O)[C@@H](O)[C@@H]1O")
"N"
>>> assigned_label("COc1ccc(-c2c(OC)c3c(OC)c4c(cc3oc2=O)OC(C)(C)C=C4)cc1")
"N"
>>> assigned_label("Cn1c(SCC(=O)NCCO)nc2ccccc2c1=O")
"N"
>>> assigned_label("Cc1nnc(SCC(N)=O)c2ccccc12")
"N"
>>> assigned_label("CC(C)=CCc1c(O)cc(C)oc1=O")
"N"
>>> assigned_label("Cc1cc2c(N)cccc2nn1")
"N"
>>> assigned_label("CN(C(=O)NC1CCS(=O)(=O)C1)C1CCCCC1 (centres undefined)")
"N"
>>> assigned_label("Cn1nnc2cc(CN)ccc21")
"N"
>>> assigned_label("O=C(c1ccccc1)c1cncc(Br)c1")
"N"
>>> assigned_label("CC(=O)O[C@H]1C[C@@H](OC(C)=O)C(C)(C)C2C[C@@H](O)[C@]3(C)C(CC[C@@]4(C)[C@H](c5ccoc5)OC(=O)[C@H]5O[C@]543)[C@]21C (some centres undefined)")
"N"
>>> assigned_label("O=C(Nc1ccc(F)cc1F)c1ccco1")
"N"
>>> assigned_label("NC(=O)CC1NC(=O)c2ccccc21 (centres undefined)")
"N"
>>> assigned_label("Cc1nnc(SCC(=O)NCc2ccccc2)[nH]c1=O")
"N"
>>> assigned_label("CN(c1ccccc1C(=O)N1CCCC1)S(C)(=O)=O")
"N"
>>> assigned_label("O=C(O)c1[nH]nc2c1COc1ccccc1-2")
"N"
>>> assigned_label("Nc1ccc2c(c1)COc1ccccc1O2")
"N"
>>> assigned_label("Cc1cccc(CSc2nncc(=O)[nH]2)c1")
"N"
>>> assigned_label("Cn1cccc1C(=O)NS(=O)(=O)c1ccccc1Cl")
"N"
>>> assigned_label("COC(=O)CC1NC2CCCCC2NC1=O (centres undefined)")
"N"
>>> assigned_label("Cc1cc(C)c(NC(=O)CN2CCC(O)CC2)c(C)c1")
"N"
>>> assigned_label("COc1cccc(C(=O)Nc2c(C)n[nH]c2C)c1")
"N"
>>> assigned_label("CN(C)S(=O)(=O)N1CCc2ccccc21")
"N"
>>> assigned_label("CCOC(=O)c1cnn2ccccc12")
"N"
>>> assigned_label("CN1CCC(=NNC(=O)c2ccco2)CC1")
"N"
>>> assigned_label("O=C(CC1SC(=O)NC1=O)Nc1ccccc1 (centres undefined)")
"N"
>>> assigned_label("O=C1NC(=Nc2ccc(O)cc2)S/C1=C/c1ccco1")
"N"
>>> assigned_label("CN1CCN(C(=O)Nc2cccc3ccccc23)CC1")
"N"
>>> assigned_label("Cc1n[nH]c(=S)n(/N=C/c2cccs2)c1=O")
"N"
>>> assigned_label("CC(C)(C)c1cc(N)n[nH]1")
"N"
>>> assigned_label("COc1ccc([C@@H]2CC(=O)c3c(O)cc(O[C@@H]4O[C@H](CO[C@H]5O[C@@H](C)[C@H](O)[C@@H](O)[C@H]5O)[C@@H](O)[C@H](O)[C@H]4O)cc3O2)cc1O")
"N"
>>> assigned_label("O=C1NC(=S)NC(=O)C1=Cc1ccco1")
"N"
>>> assigned_label("COC(=O)[C@@H]1CCCCN1C(=O)C(=O)c1cc(OC)c(OC)c(OC)c1")
"Y"
>>> assigned_label("Cc1cc(OCC(=O)N2CCOCC2)c(C(C)C)cc1Cl")
"N"
>>> assigned_label("CCCNC(=O)CSc1ncccc1C(=O)O")
"N"
>>> assigned_label("Cc1cc(C)c(C(N)=O)c(=S)[nH]1")
"N"

FYI, the data here is from PubChem BioAssay AID608.
